# target.under.test: CDK8/Cyclin C (Homo sapiens, UniProt P49336)
# Sequence (P49336 whole entry, one chain of several): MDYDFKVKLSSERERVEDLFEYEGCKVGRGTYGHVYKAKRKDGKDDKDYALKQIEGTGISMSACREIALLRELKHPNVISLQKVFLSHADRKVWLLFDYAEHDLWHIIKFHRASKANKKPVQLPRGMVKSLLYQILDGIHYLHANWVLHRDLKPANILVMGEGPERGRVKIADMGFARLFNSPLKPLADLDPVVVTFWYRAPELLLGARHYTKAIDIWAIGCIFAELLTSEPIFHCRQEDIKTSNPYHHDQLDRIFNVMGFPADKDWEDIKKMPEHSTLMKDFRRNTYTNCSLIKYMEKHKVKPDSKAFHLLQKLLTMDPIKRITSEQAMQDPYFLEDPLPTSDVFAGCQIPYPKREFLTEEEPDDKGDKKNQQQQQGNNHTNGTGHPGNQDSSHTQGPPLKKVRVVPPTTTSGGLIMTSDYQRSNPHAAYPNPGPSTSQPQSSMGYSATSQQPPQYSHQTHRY
# assay.summary: Inhibition of full length recombinant human His-tagged CDK8/Cyclin C expressed in baculovirus expression system using Ulight-GS peptide as substrate measured after 30 mins by TR-FRET based LANCE assay
pIC50: −log10 of the molar value.
parameter: pIC50

>>> quantitative_result("OC[C@H](Nc1cncc(-c2ccc3[nH]ncc3c2)c1)c1ccccc1")
9.40
>>> quantitative_result("NC(=O)c1[nH]cc(-c2ccncc2)c1Cl")
8.15
>>> quantitative_result("OC[C@H](Nc1cncc(-c2ccc(O)c(Cl)c2)n1)c1ccccc1")
9.70

* * *

# target.under.test: Cyclin-C/Cyclin-dependent kinase 19 (Homo sapiens)
# Sequence (Q9BWU1 whole entry): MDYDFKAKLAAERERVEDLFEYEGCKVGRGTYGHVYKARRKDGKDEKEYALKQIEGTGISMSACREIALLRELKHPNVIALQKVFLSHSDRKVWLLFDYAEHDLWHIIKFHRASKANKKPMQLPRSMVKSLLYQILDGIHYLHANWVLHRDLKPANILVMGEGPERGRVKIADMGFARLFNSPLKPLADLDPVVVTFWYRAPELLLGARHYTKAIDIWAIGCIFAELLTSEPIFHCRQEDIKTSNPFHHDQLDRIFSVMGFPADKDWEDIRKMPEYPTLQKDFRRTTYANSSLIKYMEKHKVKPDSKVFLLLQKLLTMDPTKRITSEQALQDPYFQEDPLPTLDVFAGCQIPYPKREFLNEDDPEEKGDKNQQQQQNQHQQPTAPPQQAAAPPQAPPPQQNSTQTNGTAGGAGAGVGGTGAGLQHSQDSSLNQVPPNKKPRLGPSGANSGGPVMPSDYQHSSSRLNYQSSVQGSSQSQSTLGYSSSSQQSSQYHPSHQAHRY
# Sequence (P24863 whole entry, further chain): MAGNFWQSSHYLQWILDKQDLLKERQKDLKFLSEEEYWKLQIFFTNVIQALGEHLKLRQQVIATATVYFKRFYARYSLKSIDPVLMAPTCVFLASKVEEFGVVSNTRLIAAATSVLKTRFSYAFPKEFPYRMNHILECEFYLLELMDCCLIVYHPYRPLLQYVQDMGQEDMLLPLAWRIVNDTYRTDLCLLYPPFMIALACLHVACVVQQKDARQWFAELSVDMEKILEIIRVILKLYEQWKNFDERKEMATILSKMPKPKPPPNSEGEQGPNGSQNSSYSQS
# assay.summary: Inhibition of kinase tracer-236 binding to GST-tagged CDK19/CyclinC (unknown origin) after 60 mins by TR-FRET assay
pIC50: −log10 of the molar value.
parameter: pIC50

>>> quantitative_result("CNC(=O)c1ccc(Oc2sc(C(N)=O)c3c2-c2sncc2CC3)cn1")
9.00
>>> quantitative_result("CS(=O)(=O)c1sc(C(N)=O)c2c1-c1sncc1CC2")
6.96
>>> quantitative_result("CCOCCNC(=O)c1ccc(Oc2sc(C(N)=O)c3c2-c2sncc2CC3)cn1")
8.72
>>> quantitative_result("CSc1sc(C(=O)O)c2c1-c1sncc1CC2")
7.92
>>> quantitative_result("CSc1sc(C(N)=O)c2c1-c1[nH]ncc1CC2")
5.51
>>> quantitative_result("CC(=O)Nc1ccc(Oc2sc(C(N)=O)c3c2-c2sncc2CC3)cn1")
9.24
>>> quantitative_result("Cc1ccncc1Oc1sc(C(N)=O)c2c1-c1sncc1CC2")
8.18
>>> quantitative_result("COCCNC(=O)c1ccc(Oc2sc(C(N)=O)c3c2-c2sncc2CC3)c(C)n1")
8.89
>>> quantitative_result("CSc1sc(C(=O)Nc2ccccc2)c2c1-c1sncc1CC2")
6.15
>>> quantitative_result("C[S+]([O-])c1sc(C(N)=O)c2c1-c1sncc1CC2 (centres undefined)")
6.82
>>> quantitative_result("Cc1c(Oc2sc(C(N)=O)c3c2-c2sncc2CC3)ccc[n+]1[O-]")
8.03
>>> quantitative_result("NC(=O)c1sc(Oc2ccc(N)nc2)c2c1CCc1cnsc1-2")
8.96
>>> quantitative_result("CNc1ccc(Oc2sc(C(N)=O)c3c2-c2sncc2CC3)cn1")
9.44
>>> quantitative_result("Cc1ncccc1Oc1sc(C(N)=O)c2c1-c1sncc1CC2")
9.11
>>> quantitative_result("NC(=O)c1sc(Oc2cccnc2)c2c1CCc1cnsc1-2")
8.57
>>> quantitative_result("Cc1cncc(Oc2sc(C(N)=O)c3c2-c2sncc2CC3)c1")
8.04
>>> quantitative_result("CSc1sc(C(=O)Nc2ccccn2)c2c1-c1sncc1CC2")
6.40
>>> quantitative_result("CSc1sc(C(N)=O)c2c1-c1c(cnn1C)CC2")
7.72
>>> quantitative_result("Cc1ccc(Oc2sc(C(N)=O)c3c2-c2sncc2CC3)cn1")
8.89
>>> quantitative_result("NC(=O)c1ccc(Oc2sc(C(N)=O)c3c2-c2sncc2CC3)cn1")
9.01
>>> quantitative_result("CSc1sc(C(=O)Nc2ccn(C)n2)c2c1-c1sncc1CC2")
7.19
>>> quantitative_result("CSc1sc(C#N)c2c1-c1sncc1CC2")
7.34
>>> quantitative_result("CSc1sc(C(=O)Nc2ccon2)c2c1-c1sncc1CC2")
7.82
>>> quantitative_result("CSc1sc(C(N)=O)c2c1-c1snnc1CC2")
6.89
